Provenance of the data: patent US20070048371A1

runDescription: Example 2: open-label dose-escalation pharmacokinetic and safety study in children and adolescents with ADHD
Format: in vivo, human
settings: both sexes, human, plasma, po, 2 mg, Day 14, 2 mg once daily oral; children 6-12 yrs, ADHD patients, N = 14; read-out: Tmax
Method: Objective: The objective of this study was to assess the pharmacokinetics of controlled-release guanfacine after a single 2 mg dose or multiple doses of 2 mg and 4 mg from Table 2. Methods: An open-label, dose-escalation study in male and female children (aged 6-12 years) and adolescents (aged 13-17 years) with ADHD. […] Their electrocardiogram readings (ECGs) were within normal ranges, and their blood pressure measurements were within the 95th percentile for their age, height, and gender. […]
endpoint: Tmax (h)
A number alone suffices; assume h.

Supply measured Tmax of N=C(N)NC(=O)Cc1c(Cl)cccc1Cl in your reply.
4.98
